System: DMS-114
protocol.details: NCI tumour cell line growth inhibition, 48 h
The source made the active and inactive calls. Cut-off read from the data, not from the text of the source: active = GI50 up to about 1.1 µM and inactive = higher.
measurement.type: GI50

Consider the reported GI50 for these compounds:
| compound | measurement.type | test.result |
| --- | --- | --- |
| CCOC(=O)C1(C)CCCCC(=O)N1 (stereo unspecified) | GI50 | > 100 µM (inactive) |
| NCCSc1nc(N)c2ncn(C3OC(CO)C(O)C3O)c2n1 (stereo unspecified) | GI50 | > 100 µM (inactive) |
| O=C(Nc1nc2ncn(CCOC(=O)c3ccccc3)c2c(=S)[nH]1)c1ccccc1 | GI50 | 64.4 µM (inactive) |
| CN/N=C(/Cc1occc(=O)c1O)C(=O)Nc1ccccc1C | GI50 | > 100 µM (inactive) |
| COc1ccc(/C(C=O)=C(\Cl)c2ccc(OC)c(OC)c2)cc1 | GI50 | 81.3 µM (inactive) |

API: the following record is the query input.
Please give measured GI50 of the following entry: CCc1nc2ccccc2c(=O)n1/N=C(\N=N\c1ccc(Cl)cc1)c1ccc(N(C)C)cc1
12.2 µM (inactive)

----------
Test system: OVCAR-5
protocol.details: NCI tumour cell line growth inhibition, 48 h
The source made the active and inactive calls. Cut-off read from the data, not from the text of the source: active = GI50 up to about 1.1 µM and inactive = higher.
Form entry, call: pick from 1 (active), -1 (inactive)

Below, 5 molecules whose answers are already recorded.
| molecule | category.label |
| --- | --- |
| CSc1nc(N)c(NC2OC(CO)C(O)C2O)c(=O)[nH]1 (stereo not given) | -1 |
| CCN(CC)Cc1sc2nc3ccccc3n2c1-c1ccc(OC)cc1 | -1 |
| CCOc1ccc2c(c1)[n+]([O-])c(S(=O)(=O)c1ccc(C)cc1)c(N)[n+]2[O-] | -1 |
| O=C(NCCCc1cn[nH]c(=O)n1)c1cccc2nc3ccccc3nc12 | -1 |
| COc1ccc(-c2ccc(CC(=O)O)cc2)cc1OC | -1 |

Here's the next entry for you.
Which outcome was assigned to COc1ccc2c([nH]c3cc(O)c(C)cc32)c1CC=C(C)C in this test?
-1

----------
Test system: TK-10
protocol.details: NCI tumour cell line growth inhibition, 48 h
Activity calls are given as the source filed them. Cut-off read from the data, not from the text of the source: active = GI50 up to about 1.1 µM and inactive = higher.
Allowed answers: T (active), F (inactive)

Example results:
| molecule | category.label |
| --- | --- |
| CC(=O)OCCOCCN1CCN(C2=C(Cl)C(=O)c3c(O)ccc(O)c3C2=O)CC1 | T |
| C(=N\c1ccc(-c2cc(-c3ccccc3)nc3ccc4ccccc4c23)cc1)/c1ccccc1 | F |
| CC1=C(C(=O)Nc2cccc(Cl)c2)C(c2ccccc2F)C(C(=O)Nc2cccc(Cl)c2)=C(C)N1 | F |

Kindly provide the recorded test outcome for the following molecule: O=C(O)CNC(=O)c1ccc2cc(C(=O)N3CC(CCl)c4ccc([N+](=O)[O-])cc43)[nH]c2c1 (stereo not given)
F

Hi, sorry to bother you, what did the test record for O=C(O)/C=C/C(=O)Nc1nc[nH]n1 ?
F

Record request — test call for c1ccc([P+](c2ccccc2)(c2ccccc2)C2Sc3ccccc3S2)cc1
F

In this assay, the call recorded for CCOC(=O)C1(C)CCCCC(=O)N1 (stereo not given) was what?
F

Outcome? CC1(C)CC(=O)C2=C(C1)c1c(ccc3ccccc13)NC2c1cn(Cc2ccc(Cl)cc2)c2ccccc12 (stereo not given)
F

For CCOC(=O)/C=C(/C(=O)OCC)n1cc(C)c(=O)n(Cc2cn(CCCCOC(C)=O)nn2)c1=O , what call appears in the results of this test?
F

----------
Tested on: IGROV-1
protocol.details: NCI tumour cell line growth inhibition, 48 h
Activity calls are given as the source filed them. Cut-off read from the data, not from the text of the source: active = GI50 up to about 1.1 µM and inactive = higher.
Parameter call: string, one of true = active, false = inactive

| compound | category.label |
| --- | --- |
| Cc1cc(C(O)CCCc2ccccc2)cc(C)c1O (configuration not stated) | false |

Test call for this compound, please: O=c1c2ccccc2nnn1-c1n[nH]c2ccccc12
false

// outcome(item) with item = CN/N=C(/Cc1occc(=O)c1O)C(=O)Nc1ccccc1C
false

How was CN(C)CCNC(=O)c1cccc2c1nc(-c1ccncc1)c1ccccc12 classified in this test?
true

----------
Tested on: M19-MEL
protocol.details: NCI tumour cell line growth inhibition, 48 h
Activity calls are given as the source filed them. No stated cut-off is given here; in the data, active = GI50 up to about 1.1 µM and inactive = higher.
measurement.type: GI50

| molecule | system.tested | GI50 |
| --- | --- | --- |
| CCC1=C(C(C)=O)[C@@H]2CCCCC[C@@H](C(=O)OC)C2C1=O (stereo not given in full) | M19-MEL | > 100 µM (inactive) |
| N#CC(Nc1cccc(C(F)(F)F)c1)c1ccccc1C(F)(F)F (stereo not given) | M19-MEL | 7.23 µM (inactive) |
| CCOc1ccc2c(c1)[n+]([O-])c(S(=O)(=O)c1ccc(C)cc1)c(N)[n+]2[O-] | M19-MEL | > 100 µM (inactive) |

Please report the measured GI50 for O=C(N/N=C1\C(=O)N(c2nccs2)C(=O)C(=O)C1c1nc2ccccc2s1)c1ccccc1O (stereo not given) tested on M19-MEL.
87.1 µM (inactive)

Quote M19-MEL GI50 for entry COc1cc2c(cc1OC)C(=O)Cc1ccc3c(c1CNCC2)OCO3 .
> 100 µM (inactive)

----------
GI50 for assorted molecules
System: Malme-3M
protocol.details: NCI tumour cell line growth inhibition, 48 h
The source made the active and inactive calls. Cut-off read from the data, not from the text of the source: active = GI50 up to about 1.1 µM and inactive = higher.

These recorded examples may help you get a feel for the data.
| molecule | system.tested | GI50 |
| --- | --- | --- |
| CC(C)(CCl)NC(=O)c1cccc(C(=O)NC(C)(C)CCl)n1 | Malme-3M | > 100 µM (inactive) |
| Cc1ccc(SCC(CF)OC(C)n2cnc3c(O)nc(N)nc32)cc1 (centres undefined) | Malme-3M | > 100 µM (inactive) |
| CC1(C)OCC(C2OC3OC(C)(C)OC3C2c2ccccc2)O1 (centres undefined) | Malme-3M | 42.2 µM (inactive) |
| CCCCCCNC(=S)N/N=C(\C)c1ccccn1 | Malme-3M | 2.65 µM (inactive) |
| CC(=O)OC12/C(=N/O)CCCCCC1c1ccccc12 (centres undefined) | Malme-3M | > 100 µM (inactive) |
| C/C=C(\C)C(=O)O[C@@H]1CC(C)(C)CC2C3=CCC4[C@]56CC[C@](O)(OC5)C(C)(C)C6CC[C@@]4(C)C3(C)CC[C@]21C(=O)O (some centres undefined) | Malme-3M | > 100 µM (inactive) |
| COc1cc(N(C)C)c(OC)cc1/C=C\c1ccnc2ccccc12 | Malme-3M | 4.86 µM (inactive) |
| COc1ccc(C2C3CCCC(C3=O)C(c3ccc(OC)cc3)N2N=O)cc1 (centres undefined) | Malme-3M | 7.85 µM (inactive) |
| Brc1ccc(C2(N3CCCCC3)CCCCC2)s1 | Malme-3M | 29.3 µM (inactive) |
| C=C(CC[C@@H](C)[C@H]1CC[C@@]2(C)C3=C(CC[C@]12C)[C@@]1(C)CC[C@H](O)[C@@H](C)C1CC3)C(C)C (some centres undefined) | Malme-3M | 1.29 µM (inactive) |

Give GI50 for COc1ccc(/C=C\c2cc(OC)c3c(c2)OCO3)c(O)c1O
13.4 µM (inactive)

Give GI50 for the following molecule: Cc1ccc(O)c(C2=NNC(c3cccc(Cl)c3)C2)c1 (centres undefined)
37.8 µM (inactive)

For the molecule CO[C@@]12C[C@@H](C)C3=CCC(C)=C3CC1=C(C)C(=O)O2 , give its reported GI50.
> 100 µM (inactive)

Using known records, supply GI50 for CC1=NN(c2ccccc2)C(=O)C1=C1SCCS1
> 67.6 µM (inactive)

Recall and state the measured GI50 for COC(=O)C1(C)OC(C)=NC1(C(=O)OC)C(=O)OC (centres undefined) .
> 100 µM (inactive)

Hello, please tell me recorded GI50 for this one: CCOC(=O)N1Cc2ccoc2C1
> 100 µM (inactive)

Quick one: give measured GI50 for COc1ccc(/C=C2\N=C(N3CCCCC3)NC2=O)cc1
> 100 µM (inactive)

Look up GI50 of c1ccc2c(CSCc3cccc4ccccc34)cccc2c1 and report it.
58.9 µM (inactive)

Report GI50, nothing else, for this molecule: CCOP(=O)(OCC)C(C(=O)OC)C(=O)C(=O)Nc1c(C)cc(Br)cc1C (centres undefined)
> 100 µM (inactive)

Query GI50 for O=C(CN1CCCC1)Nc1ccc2c(c1)C1Oc3ccccc3CC1CO2 (centres undefined)
16.7 µM (inactive)

Provide one value: measured GI50 of Cc1cnc2nc(-c3ccc(Cl)cc3)cc(O)c2c1
8.61 µM (inactive)

Assign GI50 to the following record: CC1(C)Oc2ccc3c(=O)cc(-c4ccc(F)cc4)oc3c2C1C(=O)O (centres undefined)
> 100 µM (inactive)

Fill in reported GI50 for this entry: C/C(=N/CC(=O)O)c1ccccc1
> 100 µM (inactive)

Please give measured GI50 of the following entry: CC1C2=CC=C(O2)C(C)(C)C2=CC=C(O2)C(C)(C)C2=CC=C(O2)C(C)(C)C2=CC=C1O2
> 100 µM (inactive)

Where do the numbers come from? From ChEMBL document CHEMBL1201862.
